# assay comment: ABTS radical scavenging test
# test context: 30 min in dark, 734 nm
# Method: For ABTS test, ABTS solution (2 mL of ABTS stock solution (0.01 M) added to 58 mL phosphate buffers, pH 7.0) was incubated for 12 h and diluted with methanol for use. […] The mixture was kept in dark for 30 min, and the absorbance at 734 nm was measured by an UV-Vis Spectrophotometer. […] The scavenging activity of DPPH and ABTS· radicals was calculated by the following formula: Radical scavenging rate% = 1 − As/A0 × 100 (2) where A0 was the absorbance of control and As was the absorbance of sample.
measurement type: pEC50
Give bare numbers, as −log10 of the molar value.

input: I have this compound here, COc1cc(/C=C/c2cc(O)cc(O)c2)ccc1O , and I need its recorded pEC50.
output: 3.52
